Assay: chemical genetic growth profiling, strain panel (AID 1159580);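 further: tested at 20 µM; growth read once vehicle control cultures reached saturation at 30 °C; 1 = growth at the plate median or of vehicle wells; lower values mean less growth of the strain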
Settings: S. cerevisiae deletion strains, growth OD, locus YOR184W, strain ser1, hits give low values
The campaign covered roughly 5,500 compounds. About 2,000 (36%) were called active. Not shown: some 18% with an inconclusive outcome. The list shows a part of the results.
Please provide measured normalized growth for the entries that follow.
One number for each entry.

Example entries begin here.
MOLECULE	RESULT
COc1cc2c(cc1OC)[C@@H]1C(=O)c3ccc4oc(C(C)C)cc4c3O[C@@H]1CO2	1.05
C=Cc1c2[nH]c(c1C)C=c1[nH]c(c(C)c1C=C)=CC1N=C(C=c3[nH]c(c(C)c3CCC(=O)O)=C2)C(CCC(=O)O)=C1C (stereo not drawn)	0.964
COc1cc2c(cc1OC)[C@@H]1C(=O)c3ccc4c(c3O[C@@H]1CO2)C=CC(C)(C)O4	0.899
CCCCCCCCCCCCCCCC(=O)OC/C=C(C)/C=C/C=C(C)/C=C/C1=C(C)CCCC1(C)C	0.991
CC1=C(C(C)O)C2=NC1C=c1[nH]c(c(C)c1C(C)O)=Cc1[nH]c(c(CCC(=O)O)c1C)C=c1[nH]c(c(C)c1CCC(=O)O)=C2 (stereo not drawn)	0.972

For every listed record, write down its normalized growth.
1. CC1=C(/C=C/C(C)=C/C=C/C(C)=C/C=C/C=C(C)/C=C/C=C(C)/C=C/C2=C(C)C(=O)C(O)CC2(C)C)C(C)(C)CC(O)C1=O (stereo not drawn)
2. c1cncc(C2CCCCN2)c1 (stereo not drawn)

*A*
1. 0.985
2. 1

*Q* Recorded normalized growth for COc1cc2c(cc1OC)C1C(=O)c3ccc4c(c3OC1CO2)CCC(C)(C)O4 (stereo not drawn) , please?
*A* 1.02
